B1: mRNA-splicing (parent)
chain: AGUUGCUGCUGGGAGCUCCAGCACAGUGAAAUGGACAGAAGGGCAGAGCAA

- Variants of: B1
- test.summary: exon inclusion enrichment index; higher = more inclusion; WT1 exon 5 minigene, HEK293
reported.endpoint: exon inclusion enrichment index
One number for each entry.

- mutation.id: "G5A U7C G8A U10C G46C A47C"
  reported.endpoint: "exon inclusion enrichment index"
  readout.value: 1.81
- mutation.id: "G5C C6A U7C G8A U10A G12U G13C"
  reported.endpoint: "exon inclusion enrichment index"
  readout.value: 0.0217
- mutation.id: "G26U U27A"
  reported.endpoint: "exon inclusion enrichment index"
  readout.value: 0.0316
- mutation.id: "A40U G41C"
  reported.endpoint: "exon inclusion enrichment index"
  readout.value: 0.701
- mutation.id: "C6A U7A C9A G11A"
  reported.endpoint: "exon inclusion enrichment index"
  readout.value: 0.721

Go through the list and state exon inclusion enrichment index for each entry.
1. G5C C6G U7C U10C G26C U27G
2. G5U G8U C9U A37G G38C

1. 4.43
2. 0.241

I would be grateful if you could provide exon inclusion enrichment index for each of the following entries.
1. C6A U7G C9A U10C
2. G5C C6A U7C G8A U10A A37U
3. C6A U7A C9A U10A G28U A29G

[0.53, 0.0984, 0.627]

Provide each entry's exon inclusion enrichment index from the list below.
1. U17A C18U
2. C6A U7A C9A U10A U27G
3. G5C C6U G8C C9U U10C A20C G21C
4. G5C C6G U7C U10C G11A G12A
5. C6A U7A C9A U10A G33C G34C
6. C6A U7C C9A U10C G42A
7. G5A C6U U7A G8U C9A A30C A31G

1: 1.09; 2: 0.189; 3: 0.524; 4: 1.91; 5: 0.353; 6: 4.25; 7: 0.168

# per-item lookup of exon inclusion enrichment index; items listed below
1. G5C C6A U7C G8A U10A U32G G33A
2. G5C C6A U7C G8A U10A G33A G34A

1. 0.00787
2. 0.00429

Would you be so kind as to report exon inclusion enrichment index for each listed record?
1. G5C C6G U7C U10C C44U A45G
2. G5A C6U U7A G8U C9A A45G
3. G5A U7C G8A U10C U27A
4. G5C C6G U7C C9U
5. G5C C6U U7A G8U C9U U10C
6. G5A U7C G8A U10C A29G A30G
7. U3C U4C G5C C6A U7C G8A U10A

1: 2.53; 2: 0.212; 3: 2.49; 4: 2.47; 5: 0.663; 6: 1.92; 7: 0.144

Hello, I would appreciate it if you could give exon inclusion enrichment index for each entry below.
1. G5C C6U G8C C9U U10C G13U
2. G5C C6U G8C C9U U10C C16G

0.0883
1.02

For each of the items listed, what is its exon inclusion enrichment index?
1. G5C C6A U7C G8A U10A G33A
2. C6A U7A C9A U10A G21A C22G
3. G13C A14G
4. C36A A37G
5. G5A C6G U7G C9A A29G
6. G5C C6A U7C G8A U10A G42C G43A
7. C6A U7A C9A U10A C24G A25C

1: 0.00667; 2: 0.568; 3: 0.42; 4: 0.0199; 5: 0.00111; 6: 0.455; 7: 2.12

Would you mind listing exon inclusion enrichment index for each of the following variants?
1. G5C C6G U7C U10C G28C A29C
2. G5C C6A U7C G8A U10C G11A

2.81
1.06
